Each recorded value in this set is attributed to the Immune Epitope Database (IEDB).

- Target: HLA-A*31:01
- Method summary: IEDB peptide-MHC binding, purified MHC/direct/fluorescence; filed as Kd, often an IC50 or EC50 that approximates it; bounds were set here for any values at or beyond the usual limits of such assays
- Conditions: source organism: Bacillus anthracis
pKd: −log10 of the molar value.
Measurement name: pKd

Just so you know, measured pKd for FTDNNELEF came out at ≤ 4.70

----------
- Target: HLA-B*57:01
- Method summary: IEDB peptide-MHC binding, purified MHC/direct/fluorescence; filed as Kd, often an IC50 or EC50 that approximates it; bounds were set here for any values at or beyond the usual limits of such assays
- Conditions: source organism: Yellow fever virus strain Ghana/Asibi/1927
Measurement name: Kd

For AIHPFALLL the sequence record lists Kd as ≥ 20 µM
